biological target: anti-CLDN-5 ECR mAb clone 1D1; assay: proteoliposome ELISA; conditions: chain shown with the change;; parent: est. 1.0; read off a plot
Sequence (chain, as listed by the source, chain 1 of 2): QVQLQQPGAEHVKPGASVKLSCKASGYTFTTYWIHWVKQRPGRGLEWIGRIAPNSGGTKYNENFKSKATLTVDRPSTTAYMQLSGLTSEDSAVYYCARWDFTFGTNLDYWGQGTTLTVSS
Sequence (chain, as listed by the source, chain 2 of 2): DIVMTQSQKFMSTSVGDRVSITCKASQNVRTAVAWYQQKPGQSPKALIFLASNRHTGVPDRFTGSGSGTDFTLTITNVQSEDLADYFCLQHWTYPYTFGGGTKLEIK
parameter: ratio to parent
Hey, just send me the number, nothing else.

binder	ratio to parent
AGIA-tagged human CLDN-5, cell-free synthesized proteoliposome, O00501 P153A (protein) MGSAALEILGLVLCLVGWGGLILACGLPMWQVTAFLDHNIVTAQTTWKGLWMSCVVQSTGHMQCKVYDSVLALSTEVQAARALTVSAVLLAFVALFVTLAGAQCTTCVAPGPAKARVALTGGVLYLFCGLLALVPLCWFANIVVREFYDPSVAVSQKYELGAALYIGWAATALLMVGGCLLCCGAWVCTGRPDLSFPVKYSAPRRPTATGDYDKKNYV	0.13
AGIA-tagged human CLDN-5, cell-free synthesized proteoliposome, O00501 Y148A (protein) MGSAALEILGLVLCLVGWGGLILACGLPMWQVTAFLDHNIVTAQTTWKGLWMSCVVQSTGHMQCKVYDSVLALSTEVQAARALTVSAVLLAFVALFVTLAGAQCTTCVAPGPAKARVALTGGVLYLFCGLLALVPLCWFANIVVREFADPSVPVSQKYELGAALYIGWAATALLMVGGCLLCCGAWVCTGRPDLSFPVKYSAPRRPTATGDYDKKNYV	1.3
AGIA-tagged human CLDN-5, cell-free synthesized proteoliposome, O00501 S155A (protein) MGSAALEILGLVLCLVGWGGLILACGLPMWQVTAFLDHNIVTAQTTWKGLWMSCVVQSTGHMQCKVYDSVLALSTEVQAARALTVSAVLLAFVALFVTLAGAQCTTCVAPGPAKARVALTGGVLYLFCGLLALVPLCWFANIVVREFYDPSVPVAQKYELGAALYIGWAATALLMVGGCLLCCGAWVCTGRPDLSFPVKYSAPRRPTATGDYDKKNYV	0.86
AGIA-tagged human CLDN-5, cell-free synthesized proteoliposome, O00501 P150A (protein) MGSAALEILGLVLCLVGWGGLILACGLPMWQVTAFLDHNIVTAQTTWKGLWMSCVVQSTGHMQCKVYDSVLALSTEVQAARALTVSAVLLAFVALFVTLAGAQCTTCVAPGPAKARVALTGGVLYLFCGLLALVPLCWFANIVVREFYDASVPVSQKYELGAALYIGWAATALLMVGGCLLCCGAWVCTGRPDLSFPVKYSAPRRPTATGDYDKKNYV	0.26
AGIA-tagged human CLDN-5, cell-free synthesized proteoliposome, O00501 V154A (protein) MGSAALEILGLVLCLVGWGGLILACGLPMWQVTAFLDHNIVTAQTTWKGLWMSCVVQSTGHMQCKVYDSVLALSTEVQAARALTVSAVLLAFVALFVTLAGAQCTTCVAPGPAKARVALTGGVLYLFCGLLALVPLCWFANIVVREFYDPSVPASQKYELGAALYIGWAATALLMVGGCLLCCGAWVCTGRPDLSFPVKYSAPRRPTATGDYDKKNYV	1.3

Note down ratio to parent recorded for AGIA-tagged human CLDN-5, cell-free synthesized proteoliposome, O00501 E146A (protein) MGSAALEILGLVLCLVGWGGLILACGLPMWQVTAFLDHNIVTAQTTWKGLWMSCVVQSTGHMQCKVYDSVLALSTEVQAARALTVSAVLLAFVALFVTLAGAQCTTCVAPGPAKARVALTGGVLYLFCGLLALVPLCWFANIVVRAFYDPSVPVSQKYELGAALYIGWAATALLMVGGCLLCCGAWVCTGRPDLSFPVKYSAPRRPTATGDYDKKNYV
0.26

Note down ratio to parent recorded for AGIA-tagged human CLDN-5, cell-free synthesized proteoliposome, O00501 D149A (protein) MGSAALEILGLVLCLVGWGGLILACGLPMWQVTAFLDHNIVTAQTTWKGLWMSCVVQSTGHMQCKVYDSVLALSTEVQAARALTVSAVLLAFVALFVTLAGAQCTTCVAPGPAKARVALTGGVLYLFCGLLALVPLCWFANIVVREFYAPSVPVSQKYELGAALYIGWAATALLMVGGCLLCCGAWVCTGRPDLSFPVKYSAPRRPTATGDYDKKNYV
0.06

Note down ratio to parent recorded for AGIA-tagged human CLDN-5, cell-free synthesized proteoliposome, O00501 Q156A (protein) MGSAALEILGLVLCLVGWGGLILACGLPMWQVTAFLDHNIVTAQTTWKGLWMSCVVQSTGHMQCKVYDSVLALSTEVQAARALTVSAVLLAFVALFVTLAGAQCTTCVAPGPAKARVALTGGVLYLFCGLLALVPLCWFANIVVREFYDPSVPVSAKYELGAALYIGWAATALLMVGGCLLCCGAWVCTGRPDLSFPVKYSAPRRPTATGDYDKKNYV
0.88

Note down ratio to parent recorded for AGIA-tagged human CLDN-5, cell-free synthesized proteoliposome, O00501 S151A (protein) MGSAALEILGLVLCLVGWGGLILACGLPMWQVTAFLDHNIVTAQTTWKGLWMSCVVQSTGHMQCKVYDSVLALSTEVQAARALTVSAVLLAFVALFVTLAGAQCTTCVAPGPAKARVALTGGVLYLFCGLLALVPLCWFANIVVREFYDPAVPVSQKYELGAALYIGWAATALLMVGGCLLCCGAWVCTGRPDLSFPVKYSAPRRPTATGDYDKKNYV
0.1

Note down ratio to parent recorded for AGIA-tagged human CLDN-5, cell-free synthesized proteoliposome, O00501 V152A (protein) MGSAALEILGLVLCLVGWGGLILACGLPMWQVTAFLDHNIVTAQTTWKGLWMSCVVQSTGHMQCKVYDSVLALSTEVQAARALTVSAVLLAFVALFVTLAGAQCTTCVAPGPAKARVALTGGVLYLFCGLLALVPLCWFANIVVREFYDPSAPVSQKYELGAALYIGWAATALLMVGGCLLCCGAWVCTGRPDLSFPVKYSAPRRPTATGDYDKKNYV
1.6

Note down ratio to parent recorded for AGIA-tagged human CLDN-5, cell-free synthesized proteoliposome, O00501 F147A (protein) MGSAALEILGLVLCLVGWGGLILACGLPMWQVTAFLDHNIVTAQTTWKGLWMSCVVQSTGHMQCKVYDSVLALSTEVQAARALTVSAVLLAFVALFVTLAGAQCTTCVAPGPAKARVALTGGVLYLFCGLLALVPLCWFANIVVREAYDPSVPVSQKYELGAALYIGWAATALLMVGGCLLCCGAWVCTGRPDLSFPVKYSAPRRPTATGDYDKKNYV
1.5
